// data source = patent US9969775B2

Molecular target: hCGRP receptor (CALCRL:RAMP1) (Homo sapiens, UniProt O60894+Q16602)
Construct: host or cells: GeneBLAzer CALCRL:RAMP1-CRE-bla Freestyle 293F
Sequence (Q16602 23-461): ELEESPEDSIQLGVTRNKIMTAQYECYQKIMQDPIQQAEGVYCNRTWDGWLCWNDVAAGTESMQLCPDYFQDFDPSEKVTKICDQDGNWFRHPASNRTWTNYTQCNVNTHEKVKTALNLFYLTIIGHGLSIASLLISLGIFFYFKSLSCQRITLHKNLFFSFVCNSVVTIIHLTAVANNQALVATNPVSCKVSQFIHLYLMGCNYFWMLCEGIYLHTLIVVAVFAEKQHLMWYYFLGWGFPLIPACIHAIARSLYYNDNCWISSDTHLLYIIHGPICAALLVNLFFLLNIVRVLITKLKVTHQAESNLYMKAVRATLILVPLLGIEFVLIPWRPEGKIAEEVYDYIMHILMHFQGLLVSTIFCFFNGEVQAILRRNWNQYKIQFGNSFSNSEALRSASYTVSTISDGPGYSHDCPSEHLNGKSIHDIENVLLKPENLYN
Sequence (O60894 27-148): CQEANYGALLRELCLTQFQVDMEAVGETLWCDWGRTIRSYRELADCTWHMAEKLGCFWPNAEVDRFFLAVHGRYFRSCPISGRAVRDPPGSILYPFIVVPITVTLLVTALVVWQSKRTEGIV
Assay: CGRP receptor antagonist activity measured by cAMP assay (HTRF)
Format: cell-based
Details: GeneBLAzer CALCRL:RAMP1-CRE-bla Freestyle 293F cells; agonist human α-CGRP; 30 minutes; read-out: hCGRP-R IC50 Ave
Numbered stars: 1 amine (or outer) side, 2 acyl side, 3 side chain; on linkers, the order of the positions; unused ones are H or OH. Bridge positions count the residues as written; N and C are the ends. Square brackets hold non-standard residues; d marks the D form. Peptide text beside a SMILES is read from it. * marks the point of attachment. Phe(3-CONH2) = NC(=O)c1cccc(C[C@H](N)C(=O)O)c1; Phe(2-CONH2) = NC(=O)c1ccccc1C[C@H](N)C(=O)O; X5 = O=C([C@H](Cc1ccc(CO)cc1)N[*:1])[*:2]; Phe(3-CN) = N#Cc1cccc(C[C@H](N)C(=O)O)c1; Picolinoyl(5-F) = O=C(c1ccc(F)cn1)*; Orn(iPr) = CC(C)NCCC[C@H](N)C(=O)O; Benzoyl(4-F) = O=C(c1ccc(F)cc1)*; Oxazole2carbonyl = O=C(c1ncco1)*; 3Pal = N[C@@H](Cc1cccnc1)C(=O)O; ΔPro = O=C(O)[C@@H]1C=CCN1
Measured IC50 accompanies every entry in the list below.
measurement label: IC50 (nM)

[[record]]
molecule = "CC(C)NCCC[C@@H]1NC(=O)[C@@H](NC(=O)[C@H](Cc2ccc(O)cc2)NC(=O)[C@H](NC(=O)c2ncco2)C(C)C)CSSC[C@@H](C(=O)N[C@@H](Cc2cccnc2)C(N)=O)NC(=O)[C@H](Cc2cccc(C(N)=O)c2)NC(=O)[C@@H]2C=CCN2C(=O)CNC(=O)[C@H](C(C)C)NC(=O)[C@H](CC(=O)O)NC1=O [Compound 67] (Oxazole2carbonyl-[dV]YC[Orn(iPr)]DVG[ΔPro][Phe(3-CONH2)]C[3Pal]-NH2; disulfide 3-10)"
measurement_label = "IC50"
reported = 0.09

[[record]]
molecule = "CC(C)[C@@H]1NC(=O)[C@H](CC(=O)O)NC(=O)[C@H](CCCNC(=N)N)NC(=O)[C@@H](NC(=O)[C@H](Cc2ccc(O)cc2)NC(=O)[C@H](NC(=O)c2ccc(F)cc2)C(C)C)CSSC[C@@H](C(=O)N[C@@H](Cc2cccnc2)C(N)=O)NC(=O)[C@H](Cc2cccc(C#N)c2)NC(=O)[C@@H]2CCCN2C(=O)CNC1=O [Compound 21] ({Benzoyl(4-F)}-[dV]YCRDVGP[Phe(3-CN)]C[3Pal]-NH2; disulfide 3-10)"
measurement_label = "IC50"
reported = 0.13

[[record]]
molecule = "CC(C)NCCC[C@@H]1NC(=O)[C@@H](NC(=O)[C@H](Cc2ccccc2C(N)=O)NC(=O)[C@H](NC(=O)c2ccc(F)cn2)C(C)C)CSSC[C@@H](C(=O)N[C@@H](Cc2cccnc2)C(N)=O)NC(=O)[C@H](Cc2ccc(CO)cc2)NC(=O)[C@@H]2C=CCN2C(=O)CNC(=O)[C@H](C(C)C)NC(=O)[C@H](CC(=O)O)NC1=O [Compound 63] ({Picolinoyl(5-F)}-[dV][Phe(2-CONH2)]C[Orn(iPr)]DVG[ΔPro][X5]C[3Pal]-NH2; disulfide 3-10)"
measurement_label = "IC50"
reported = 0.1

